Molecular target: MCL-1/Bim interaction (recombinant human MCL-1 protein, residues 171-327; biotinylated human Bim peptide, residues 51-76) (Homo sapiens (Human), UniProt Q07820)
Sequence (Q07820 171-327): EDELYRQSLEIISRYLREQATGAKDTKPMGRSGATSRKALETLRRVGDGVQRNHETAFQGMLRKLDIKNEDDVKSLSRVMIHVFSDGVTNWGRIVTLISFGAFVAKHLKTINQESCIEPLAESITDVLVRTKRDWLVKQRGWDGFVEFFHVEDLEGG
Assay: MCL-1/Bim Binding AlphaLISA Assay
Settings: 0.0625 nM 6xHis-Mcl-1 (171-327), 0.0625 nM biotinylated-Bim peptide
Entries get a class label from measured IC50. See ranges: low band = under 0.08 nM, middle band = from 0.08 nM up to 0.1 nM, high band = 0.1 nM and over

Example entries begin here.
C[C@@H]1[C@@H](C)C/C=C/[C@H](O)[C@@H]2CC[C@H]2CN2C[C@@]3(CCCc4cc(Cl)ccc43)COc3ccc(cc32)C(=O)N=[S@]1(=O)NC(=O)N[C@@H]1C[C@H]1C(F)F
low band
CO[C@H]1/C=C/C[C@H](C)C[S@@](=O)(NC(=O)N2CC(F)(F)C2)=NC(=O)c2ccc3c(c2)N(C[C@@H]2CC[C@H]21)C[C@@]1(CCCc2cc(Cl)ccc21)CO3
high band
COc1nn(C)cc1C(=O)N[S@@]1(=O)=NC(=O)c2ccc3c(c2)N(C[C@@H]2CC[C@H]2[C@@H](OC)CC[C@H](O)[C@H](C)C1)C[C@@]1(CCCc2cc(Cl)ccc21)CO3
low band
CO[C@H]1/C=C/CCC[S@@](=O)(NC(=O)CC2CC2)=NC(=O)c2ccc3c(c2)N(C[C@@H]2CC[C@H]21)C[C@@]1(CCCc2cc(Cl)ccc21)CO3
high band
CO[C@H]1/C=C/C[C@H](C)C[S@@](=O)(NC(=O)c2cnn(C)c2)=NC(=O)c2ccc3c(c2)N(C[C@@H]2CC[C@H]21)C[C@@]1(CCCc2cc(Cl)ccc21)CO3
low band
CO[C@H]1/C=C/C[C@H](C)C[S@@](=O)(NC(=O)CCc2cnn(C)c2)=NC(=O)c2ccc3c(c2)N(C[C@@H]2CC[C@H]21)C[C@@]1(CCCc2cc(Cl)ccc21)CO3
middle band

Q. Hi there! Could you help me figure out the category for CO[C@H]1/C=C/C[C@H](C)C[S@@](=O)(NC(=O)COC2CC2)=NC(=O)c2ccc3c(c2)N(C[C@@H]2CC[C@H]21)C[C@@]1(CCCc2cc(Cl)ccc21)CO3 please?
A. middle band

Q. Could you place CO[C@H]1/C=C/C[C@H](C)C[S@@](=O)(NC(=O)N[C@H]2C[C@H](F)C2)=NC(=O)c2ccc3c(c2)N(C[C@@H]2CC[C@H]21)C[C@@]1(CCCc2cc(Cl)ccc21)CO3 in its proper category? Many thanks.
A. high band
